The following molecules are listed with their measured log10 of IC50 values.
Biological target: ML/X-IAP chimera MLXBIR3SG (Homo sapiens, UniProt Q96CA5, S150G)
Sequence (Q96CA5 with tags, fused parts or gaps S150G): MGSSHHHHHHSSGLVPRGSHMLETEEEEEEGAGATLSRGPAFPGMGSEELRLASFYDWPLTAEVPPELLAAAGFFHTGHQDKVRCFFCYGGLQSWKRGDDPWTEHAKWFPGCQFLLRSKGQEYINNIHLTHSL
Assay: Fluorescence polarization peptide binding assay, MLXBIR3SG
Settings: 0.06 μM MLXBIR3SG, 5 nM AVP-diPhe-FAM probe, one hour incubation
READOUT_NAME: log10 of IC50 (log10 of the value in nM)

{"columns": ["SMILES_STRUCTURE", "TARGET_OR_SYSTEM", "RECORDED_RESULT"],
 "data": [
  ["CN[C@@H](C)C(=O)N[C@H](C(=O)N[C@H](C(=O)NCC(c1ccccc1)c1ccccc1)C(F)(F)F)C1CCCCC1", "ML/X-IAP chimera MLXBIR3SG (Homo sapiens, UniProt Q96CA5, S150G)", 2.95],
  ["CN[C@@H](C)C(=O)N[C@H](C(=O)N(C)[C@H](C(=O)Nc1snnc1-c1ccccc1)C(C)C)C1CCCCC1", "ML/X-IAP chimera MLXBIR3SG (Homo sapiens, UniProt Q96CA5, S150G)", 2.40],
  ["CN[C@@H](C)C(=O)N[C@H](C(=O)N[C@H](C(=O)Nc1snnc1-c1ccccc1)C(C)(C)F)C1CCCCC1", "ML/X-IAP chimera MLXBIR3SG (Homo sapiens, UniProt Q96CA5, S150G)", 2.39],
  ["CN[C@@H](C)C(=O)N[C@H](C(=O)N[C@H](C(=O)Nc1snnc1-c1ccccc1)C(C)(C)SCc1ccc(OC)cc1)C1CCCCC1", "ML/X-IAP chimera MLXBIR3SG (Homo sapiens, UniProt Q96CA5, S150G)", 2.73],
  ["CN[C@@H](C)C(=O)N[C@H](C(=O)N[C@H](c1nc(-c2ccc(F)c3ccccc23)cs1)C(C)(C)SCc1ccc(OC)cc1)C1CCCCC1", "ML/X-IAP chimera MLXBIR3SG (Homo sapiens, UniProt Q96CA5, S150G)", 3.95],
  ["CN[C@@H](C)C(=O)N[C@H](C(=O)N(C)[C@H](C(=O)Nc1snnc1-c1ccccc1)C(C)(C)SC)C1CCCCC1", "ML/X-IAP chimera MLXBIR3SG (Homo sapiens, UniProt Q96CA5, S150G)", 2.48]
]}
